- test-system: T1, human TNFR2 on the cell membrane (human, UniProt P20333 23-461)
- T1 construct: whole, on cells; One molecule for all cell formats; also called TNFR2-CHO cells; CHO-TNFR2
- T1 sequence (looked up): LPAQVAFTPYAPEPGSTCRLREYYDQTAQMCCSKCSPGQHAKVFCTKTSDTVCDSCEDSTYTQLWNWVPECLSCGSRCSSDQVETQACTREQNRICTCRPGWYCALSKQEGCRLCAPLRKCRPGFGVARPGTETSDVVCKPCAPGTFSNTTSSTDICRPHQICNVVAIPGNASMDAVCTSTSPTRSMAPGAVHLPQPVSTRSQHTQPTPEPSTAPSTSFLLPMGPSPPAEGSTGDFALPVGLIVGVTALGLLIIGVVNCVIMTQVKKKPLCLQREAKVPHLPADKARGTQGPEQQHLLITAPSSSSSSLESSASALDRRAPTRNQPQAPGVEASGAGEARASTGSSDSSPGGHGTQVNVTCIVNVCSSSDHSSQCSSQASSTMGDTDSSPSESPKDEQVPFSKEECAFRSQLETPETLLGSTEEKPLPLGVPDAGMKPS
- protocol-description: flow cytometry, CHO-TNFR2 cells; CHO-TNFR2 cells
readout-name: EC50 (nM)
Provide the reading as a plain figure in nM.

Previously resolved entries follow.
binder: 11G2huVH2 + huVL2(P07267) (antibody, V domains shown, Humanized 11G2) VH: QVQLVQSGAEVKKPGASVKVSCKASGYTFITYDINWVRQAPGQGLEWIGWIYPRDGNTQFNENFKGRVTMTTDTSTSTAYMELRSLRSDDTAVYYCARGDRDYGYFDVWGQGTTVTVSS VL: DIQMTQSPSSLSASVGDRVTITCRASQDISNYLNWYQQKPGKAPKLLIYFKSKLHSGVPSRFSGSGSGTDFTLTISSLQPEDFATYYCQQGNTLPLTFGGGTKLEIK
endpoint-unit: nM
EC50: 0.144
--
binder: 11G2huVH4 + huVL1(P07265) (antibody, V domains shown, Humanized 11G2) VH: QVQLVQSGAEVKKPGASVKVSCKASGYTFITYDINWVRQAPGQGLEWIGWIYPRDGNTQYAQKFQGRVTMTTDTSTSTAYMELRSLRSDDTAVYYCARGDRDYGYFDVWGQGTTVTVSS VL: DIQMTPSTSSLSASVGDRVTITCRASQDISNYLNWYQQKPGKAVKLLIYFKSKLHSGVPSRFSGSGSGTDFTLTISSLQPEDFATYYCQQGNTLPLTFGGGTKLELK
endpoint-unit: nM
EC50: 0.171
--
binder: 11G2huVH5 + huVL1(P07266) (antibody, V domains shown, Humanized 11G2) VH: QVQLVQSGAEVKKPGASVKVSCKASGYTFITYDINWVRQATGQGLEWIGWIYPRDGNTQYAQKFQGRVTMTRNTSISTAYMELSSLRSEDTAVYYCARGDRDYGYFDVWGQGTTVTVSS VL: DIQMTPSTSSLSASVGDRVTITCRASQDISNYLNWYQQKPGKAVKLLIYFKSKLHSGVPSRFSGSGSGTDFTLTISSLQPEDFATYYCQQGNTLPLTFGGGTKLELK
endpoint-unit: nM
EC50: 0.01
--
binder: 11G2huVH1 + huVL1(P07262) (antibody, V domains shown, Humanized 11G2) VH: QVQLVQSGAEVKKPGASVKLSCKASGYTFITYDINWVRQAPGQGLEWIGWIYPRDGNTQFNENFKGKATMTVDESTSTAYMEVRSLRSDDTAVYYCARGDRDYGYFDVWGQGTTVTVSS VL: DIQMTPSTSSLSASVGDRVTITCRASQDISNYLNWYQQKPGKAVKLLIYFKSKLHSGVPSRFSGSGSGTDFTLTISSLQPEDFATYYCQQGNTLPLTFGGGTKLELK
endpoint-unit: nM
EC50: 0.006
--
binder: 11G2huVH2 + huVL1(P07263) (antibody, V domains shown, Humanized 11G2) VH: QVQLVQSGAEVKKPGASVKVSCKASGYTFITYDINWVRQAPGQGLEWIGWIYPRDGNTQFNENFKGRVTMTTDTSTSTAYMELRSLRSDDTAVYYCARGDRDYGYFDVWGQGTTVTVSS VL: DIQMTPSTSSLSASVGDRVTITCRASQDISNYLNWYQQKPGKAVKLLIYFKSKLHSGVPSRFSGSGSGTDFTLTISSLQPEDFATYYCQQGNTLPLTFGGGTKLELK
endpoint-unit: nM
EC50: 0.153

Requested read-out: EC50. Entry: 11G2huVH3 + huVL2(P07268) (antibody, V domains shown, Humanized 11G2) VH: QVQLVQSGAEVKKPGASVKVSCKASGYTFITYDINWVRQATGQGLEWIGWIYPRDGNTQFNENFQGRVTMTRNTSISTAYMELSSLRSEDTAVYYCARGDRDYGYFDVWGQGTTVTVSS VL: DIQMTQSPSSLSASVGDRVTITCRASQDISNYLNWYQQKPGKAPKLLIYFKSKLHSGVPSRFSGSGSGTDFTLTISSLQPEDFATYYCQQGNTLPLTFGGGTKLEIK
0.2

Request: 11G2huVH3 + huVL1(P07264) (antibody, V domains shown, Humanized 11G2) VH: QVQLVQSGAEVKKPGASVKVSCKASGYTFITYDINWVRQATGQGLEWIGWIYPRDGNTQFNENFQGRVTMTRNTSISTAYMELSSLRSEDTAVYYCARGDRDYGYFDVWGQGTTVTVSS VL: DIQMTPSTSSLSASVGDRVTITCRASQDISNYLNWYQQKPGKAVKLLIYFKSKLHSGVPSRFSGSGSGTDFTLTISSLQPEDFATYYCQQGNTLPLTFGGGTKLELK
0.184
